# protein stability index per record follows
assay: protein stability index of a GFP-peptide fusion (yeast GPS) (PSI 1-4); higher = more stable; sorted into four equal gates, so the index is relative within each strain; conditions: ubr1∆

>  <sequence.data>
SSKLVDVYTLPSYVHFK [YML103C/NUP188]

>  <protein stability index>
1.46

$$$$
>  <sequence.data>
TLIVNTDVEKSDPAAKK [SRP21]

>  <protein stability index>
3.7

$$$$
>  <sequence.data>
EGNAQLVAIFGGQGNTD [FAS1]

>  <protein stability index>
1.05

$$$$
>  <sequence.data>
PQLISDKFSPEDGLGPL [ARP7]

>  <protein stability index>
2.61

$$$$
>  <sequence.data>
PEGYKAKSISTSAKEPS [RPO31]

>  <protein stability index>
1.86

$$$$
>  <sequence.data>
NDDALDLDLDLFDPDDF [MED4]

>  <protein stability index>
3.07

$$$$
>  <sequence.data>
NGLIISWSNGKITSPIR [RRP42]

>  <protein stability index>
3.39

$$$$
>  <sequence.data>
NQPHQSQTPSFNTNSSF [YOR098C/NUP1]

>  <protein stability index>
3.05

$$$$
>  <sequence.data>
ELPLEDFKAKYCDSMGR [RPB5]

>  <protein stability index>
3.51

$$$$
>  <sequence.data>
EEEKELTEEELKTRYVG [RPN11]

>  <protein stability index>
3.5

$$$$
>  <sequence.data>
KAELPQWYTLQSQLNVT [MED8]

>  <protein stability index>
2.69

$$$$
>  <sequence.data>
DSFIEKIIPKDISATQL [ITC1]

>  <protein stability index>
3.13

$$$$
>  <sequence.data>
TPDASKPSFSFGVPNSS [YLR335W/NUP2]

>  <protein stability index>
2.94

$$$$
>  <sequence.data>
KRQELEEASQQQQLQQN [MED2]

>  <protein stability index>
2.63

$$$$
>  <sequence.data>
PPGLDALVKPETQFKLS [CDC53]

>  <protein stability index>
2.99

$$$$
>  <sequence.data>
ATFLKLAAPQLVQMYIG [RPT5]

>  <protein stability index>
1.44

$$$$
>  <sequence.data>
KLNTFENDLLQEFDSEL [SMC3]

>  <protein stability index>
2.78

$$$$
>  <sequence.data>
SKSNLIHNYDSKKSTIT [RGR1]

>  <protein stability index>
3.11

$$$$
>  <sequence.data>
AKLNYKNLNPASSSPSS [ECM29]

>  <protein stability index>
3.04

$$$$
>  <sequence.data>
AHELQSEDVSRDHEKDT [YIL149C/MLP2]

>  <protein stability index>
2.68

$$$$
>  <sequence.data>
TYLNEVLEKDAAIVKKY [YGR119C/NUP57]

>  <protein stability index>
3.08

$$$$
>  <sequence.data>
YLERIELSFYILYSFKL [YML103C/NUP188]

>  <protein stability index>
1.59

$$$$
>  <sequence.data>
SPRFNVKIGDIEKWTAN [RPS22A]

>  <protein stability index>
3.34

$$$$
>  <sequence.data>
LIETVRQMKDVNAPLPT [RPN2]

>  <protein stability index>
3.04

$$$$
>  <sequence.data>
YKNLDRGFSKDLKSKAD [RRP6]

>  <protein stability index>
3.53

$$$$
>  <sequence.data>
KVFDTLTRFSHDADLEV [RPN1]

>  <protein stability index>
2.67

$$$$
>  <sequence.data>
IRGSDQAIPKFQMNCYA [RPN2]

>  <protein stability index>
1.47

$$$$
>  <sequence.data>
MKQLKFFKPLDYITEAV [SNU114]

>  <protein stability index>
1.92

$$$$
>  <sequence.data>
KILAGLHDTQIEGKLHM [RPN10]

>  <protein stability index>
2.98

$$$$
>  <sequence.data>
IECFKPGDIVRAQVLSL [CSL4]

>  <protein stability index>
2.39

$$$$
>  <sequence.data>
ALDGDLIELLEKLDVSR [YCG1]

>  <protein stability index>
2.73

$$$$
>  <sequence.data>
LEYMNTARINNRRLFKK [RRI2]

>  <protein stability index>
2.5

$$$$
>  <sequence.data>
SKHNERNKSAANNDINS [YDL088C/ASM4]

>  <protein stability index>
2.85

$$$$
>  <sequence.data>
SGNNNGGFTNLTSQAPQ [YDL088C/ASM4]

>  <protein stability index>
3.29

$$$$
>  <sequence.data>
SRSTDNFHNSKKRMNSN [RRI1]

>  <protein stability index>
2.61

$$$$
>  <sequence.data>
PKNKLVPTLEAKRDYII [FAS1]

>  <protein stability index>
2.15

$$$$
>  <sequence.data>
PYFEQKIQETELKIRSK [RPT6]

>  <protein stability index>
3.04

$$$$
>  <sequence.data>
LSKLCVPVANQFINLAG [QCR7]

>  <protein stability index>
1.94

$$$$
>  <sequence.data>
SHDASRSLASFEQTAFS [SIR4]

>  <protein stability index>
2.67

$$$$
>  <sequence.data>
SDFTFPEYYSTARVMGG [DIS3]

>  <protein stability index>
1.38

$$$$
>  <sequence.data>
RWEMEAFGEFSLEGCVE [FAS2]

>  <protein stability index>
2.83

$$$$
>  <sequence.data>
TNDRLNREAATKEVESN [DIS3]

>  <protein stability index>
3.1

$$$$
>  <sequence.data>
PKVTPQMMQQAQQKLKQ [SRP54]

>  <protein stability index>
1.48

$$$$
>  <sequence.data>
LLDKYGKTGLSNMILGS [YML103C/NUP188]

>  <protein stability index>
2.12

$$$$
>  <sequence.data>
VLPAATKKKSKFMTNST [ARP9]

>  <protein stability index>
2.96

$$$$
>  <sequence.data>
NRGVKLEIVYGYALRDV [RPP1]

>  <protein stability index>
3.04

$$$$
>  <sequence.data>
DVIHFEDSSILQSIVNE [PCI8]

>  <protein stability index>
3.47

$$$$
>  <sequence.data>
FGSGTQNNNTLGGGGLF [YGR119C/NUP57]

>  <protein stability index>
3.11

$$$$
>  <sequence.data>
KHFIQGGSFGNREEFIN [RPL7A]

>  <protein stability index>
1.56

$$$$
>  <sequence.data>
VYNLALKCAERQLTSME [NUT1]

>  <protein stability index>
2.31

$$$$
>  <sequence.data>
MFNNHEIDTILSTLRME [RPN9]

>  <protein stability index>
3.03

$$$$
>  <sequence.data>
LAVSTILGKNFDSVIVE [SMC1]

>  <protein stability index>
2.45

$$$$
>  <sequence.data>
KNLIQLISLKLLTFEVT [SRB8]

>  <protein stability index>
1.1

$$$$
>  <sequence.data>
GALDVEGLCIVAGSKCW [RRP45]

>  <protein stability index>
2.9

$$$$
>  <sequence.data>
RPFEGLFVISTEISPMA [RRP45]

>  <protein stability index>
2.86

$$$$
>  <sequence.data>
CILYDADESKMAKLNEC [RET1]

>  <protein stability index>
1.76

$$$$
>  <sequence.data>
KVGQFDQVLNLCLTEFE [FAS1]

>  <protein stability index>
3.11

$$$$
>  <sequence.data>
LHKNFESENFKIIALQP [RGR1]

>  <protein stability index>
2.58

$$$$
>  <sequence.data>
NENEDEDEGTLNVAEII [ARP9]

>  <protein stability index>
2.13

$$$$
>  <sequence.data>
LVSRGGCGNTQPTIRKD [RPO21]

>  <protein stability index>
2.9

$$$$

* * *

experiment: protein stability index of a GFP-peptide fusion (yeast GPS) (PSI 1-4); higher = more stable; sorted into four equal gates, so the index is relative within each strain; conditions: san1∆
recorded.endpoint: protein stability index

>  <sequence.data>
QLQKILESLKPIDDTMT [MTW1]

>  <readout.value>
2.69

$$$$
>  <sequence.data>
EQWITIESQMRDLILTE [PRP8]

>  <readout.value>
3.08

$$$$
>  <sequence.data>
VFPSSILDITDEELVSH [RPP0]

>  <readout.value>
3.26

$$$$
>  <sequence.data>
DENGDKNDNGGKMNNEV [SWI3]

>  <readout.value>
3.12

$$$$
>  <sequence.data>
DPFKTSSFNKRSKFLST [IRR1]

>  <readout.value>
2.04

$$$$
>  <sequence.data>
PPPYVKFFTQSNLEKLP [MED7]

>  <readout.value>
2.41

$$$$
>  <sequence.data>
LKVTKKHGAKKVAKRTK [RPL27A]

>  <readout.value>
3.39

$$$$
>  <sequence.data>
SIREQVHMYHKSLALLG [SNF5]

>  <readout.value>
2.37

$$$$
>  <sequence.data>
IYDDWLDRISSYTAFSR [PRP8]

>  <readout.value>
1.92

$$$$
>  <sequence.data>
PADRPQGRRNSRNFSTR [SIR4]

>  <readout.value>
3.1

$$$$
>  <sequence.data>
DNHSGDATANATANATA [DSN1]

>  <readout.value>
3.32

$$$$
>  <sequence.data>
SYNLEYIESKFCPGEIV [YMR129W/POM152]

>  <readout.value>
3.12

$$$$
>  <sequence.data>
SNYAASNSMDRSSSASN [SWI1]

>  <readout.value>
2.88

$$$$
>  <sequence.data>
SPNFKNYLKYLEYWCNP [SOH1]

>  <readout.value>
1.88

$$$$
>  <sequence.data>
VSITPGKIEKIAQSKKK [SRP21]

>  <readout.value>
1.36

$$$$
>  <sequence.data>
PNSERSGTPTLKKNIEP [YOR098C/NUP1]

>  <readout.value>
2.72

$$$$
>  <sequence.data>
LVTIEGALIHKAGLMTG [SMC1]

>  <readout.value>
2.92

$$$$
>  <sequence.data>
IKTRDACPLDNQPWQLA [HRT1]

>  <readout.value>
2.27

$$$$
>  <sequence.data>
ALEFLNTTLQDNVSFIE [REC8]

>  <readout.value>
3.05

$$$$
>  <sequence.data>
YRLMIKRLNFSFVGDYM [GRR1]

>  <readout.value>
1.53

$$$$
>  <sequence.data>
NILWAIYNSASKASMQK [YCS4]

>  <readout.value>
1.58

$$$$
>  <sequence.data>
PEGYKAKSISTSAKEPS [RPO31]

>  <readout.value>
1.45

$$$$
>  <sequence.data>
MNFISKEEFIMMVNISV [PCI8]

>  <readout.value>
1.32

$$$$
>  <sequence.data>
DCIIRLPVKWETTTQFK [FAS1]

>  <readout.value>
1.94

$$$$
>  <sequence.data>
DLSRNGRNGSNGNDESS [NUT1]

>  <readout.value>
3.18

$$$$
>  <sequence.data>
LISRLCPNSTGAELRSV [RPT1]

>  <readout.value>
1.84

$$$$
>  <sequence.data>
FTNRIPSKTPEVYMRYR [SWI3]

>  <readout.value>
2.35

$$$$
>  <sequence.data>
QKLLKQLDSDANKLSKS [ISW2]

>  <readout.value>
2.92

$$$$
>  <sequence.data>
MINGRKLIKFETRNEDD [FAS1]

>  <readout.value>
3.07

$$$$
>  <sequence.data>
EKLAVSALEQAIIYQRG [YGL100W/SEH1]

>  <readout.value>
2.11

$$$$

Where do the numbers come from? From the supplement of paper PMC9732359.
